Data provenance: ChEMBL document CHEMBL1132961

Test system: CCRF-CEM
method_description: Concentration which elicits cytotoxicity in 50% of uninfected human lymphocyte derived CEM cells
Type: cell-based
test_context: ccrf-cem, read-out: TC50 (the source's name)
recorded_metric: CC50 (µM)
Numbers only, in µM.

Entry Cc1cc(SC2=C(O)O[C@](CCc3ccc(O)cc3)(C(C)C)CC2=O)c(C(C)(C)C)cc1N (stereo in doubt; 1R) has what CC50? 215

---

System: Human immunodeficiency virus 1
method_description: Effective concentration at which 50% of the HIV-IIIB-infected human lymphocyte-derived CEM cells protected from HIV-1 infection
test_context: Human immunodeficiency virus 1, CCRF-CEM
Give EC50 for every item shown.
Give bare numbers, in nM.

Some entries whose results are on file:
- molecule: "Cc1cc(SC2=C(O)OC(CCc3ccc(O)cc3)(C(C)C)CC2=O)c(C(C)(C)C)cc1NS(=O)(=O)c1cccs1 (stereo not given)"
  unit_spec: "nM"
  experimental_result: 1800
- molecule: "Cc1cc(SC2=C(O)OC(CCc3ccc(O)cc3)(C(C)C)CC2=O)c(C(C)(C)C)cc1OS(=O)(=O)c1cccs1 (stereo not given)"
  unit_spec: "nM"
  experimental_result: 2400
- molecule: "CCNS(=O)(=O)Nc1cc(C(C)(C)C)c(SC2=C(O)OC(CCc3ccc(O)cc3)(C(C)C)CC2=O)cc1C (stereo not given)"
  unit_spec: "nM"
  experimental_result: 3300

State recorded EC50 for all listed molecules.
1. Cc1cc(SC2=C(O)OC(CCc3ccccc3)(C(C)C)CC2=O)c(C(C)(C)C)cc1NS(=O)(=O)c1cccc(C#N)c1 (stereo not given)
2. Cc1cc(SC2=C(O)OC(CCc3ccccc3)(C(C)C)CC2=O)c(C(C)(C)C)cc1OS(=O)(=O)Cn1ccnc1 (stereo not given)
3. Cc1cc(SC2=C(O)O[C@@](CCc3ccc(O)cc3)(C(C)C)CC2=O)c(C(C)(C)C)cc1NS(=O)(=O)c1ccc(C(F)(F)F)cn1
4. Cc1cc(SC2=C(O)OC(CCc3ccc(O)cc3)(C(C)C)CC2=O)c(C(C)(C)C)cc1NS(=O)(=O)c1ccc(C(F)(F)F)cc1 (stereo not given)
5. Cc1cc(SC2=C(O)OC(CCc3ccc(O)cc3)(C(C)C)CC2=O)c(C(C)(C)C)cc1NS(=O)(=O)c1ccc(C#N)cc1 (stereo not given)

1: 1500; 2: 1100; 3: 18000; 4: 1100; 5: 1600

---

method_description: Concentration which elicits cytotoxicity in 50% of uninfected human lymphocyte derived CEM cells
Type: cell-based, CCRF-CEM
test_context: uninfected CCRF-CEM cells, read-out: TC50 (the source's name)
recorded_metric: CC50 (µM)
Give bare numbers, in µM.

Some entries whose results are on file:
- compound: "Cc1cc(SC2=C(O)OC(CCc3ccccc3)(C(C)C)CC2=O)c(C(C)(C)C)cc1OS(=O)(=O)c1ccccn1 (stereo not drawn)"
  CC50 / µM: 65
- compound: "Cc1cc(SC2=C(O)O[C@@](CCc3ccccc3)(C(C)C)CC2=O)c(C(C)(C)C)cc1NS(=O)(=O)c1ccc(C(F)(F)F)cn1"
  CC50 / µM: 66
- compound: "Cc1cc(SC2=C(O)OC(CCc3ccc(N)cc3)(C(C)C)CC2=O)c(C(C)(C)C)cc1OS(=O)(=O)c1ccc(C#N)cc1 (stereo not drawn)"
  CC50 / µM: 53

State recorded CC50 for all listed compounds.
1. Cc1cc(SC2=C(O)OC(CCc3ccccc3)(C(C)C)CC2=O)c(C(C)(C)C)cc1OS(=O)(=O)Cn1ccnc1 (stereo not drawn)
2. Cc1cc(SC2=C(O)OC(CCc3ccccc3)(C(C)C)CC2=O)c(C(C)(C)C)cc1NS(=O)(=O)c1cccnc1 (stereo not drawn)
3. Cc1cc(SC2=C(O)OC(CCc3ccc(N)cc3)(C(C)C)CC2=O)c(C(C)(C)C)cc1OS(=O)(=O)c1cccnc1 (stereo not drawn)

[66, 76, 66]
